Every entry's value here was drawn from PubChem BioAssay.

- Assay procedure: inhibition of 3D7 malaria parasite growth – strain 3D7 (AID 2306);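 also: 0% = DMSO wells and 100% = chloroquine plus artemisinin control wells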
- Experimental conditions: P. falciparum 3D7 erythrocytic growth, LDH absorbance, 72 h; at 2 µM; hits give high values
Endpoint label: growth inhibition (%)
Just the number please, in %, no unit attached.

COc1ccc2c(c1)nc(CN=C(N)N)n2Cc1ccc(Cl)cc1; 102
CCc1ccc(O)c(-c2cc(C(=O)Nc3cccnc3)[nH]n2)c1; 98
O=C(Nc1ccc(Cl)cc1)Nc1nc2ccc([N+](=O)[O-])cc2[nH]1; 101
CN1CCN(CCCN(Cc2csc(-c3ccc(CNCc4ccccc4)cc3)n2)C(=O)Nc2cccc(Cl)c2)CC1; 102
Cc1cc(C(=O)NC2CCN(Cc3ccccc3)CC2)ccc1-c1nc2cc(Cl)c(Cl)cc2[nH]1; 96

### Prompt Could you tell me which growth inhibition is on file for "CCN(CC)CCN(Cc1ccc(-c2ccc(C(F)(F)F)cc2)cc1)C(=O)Cn1c(CCc2cccc(F)c2F)nc(=O)c2ccccc21" ?
### Response 97

### Prompt Could you tell me which growth inhibition is on file for "CC(C)c1ccc(NC(=O)c2cccc(CN3CCCN(CC4CCCCC4)CC3)c2)cc1" ?
### Response 85

### Prompt Could you tell me which growth inhibition is on file for "CN(C)CCCNC(=O)c1ccccc1Sc1ccccc1C#N" ?
### Response 89

### Prompt Could you tell me which growth inhibition is on file for "CCOc1ccc2nc(C)cc(NN=Cc3ccccc3Cl)c2c1" ?
### Response 101

### Prompt Could you tell me which growth inhibition is on file for "CC(C)(O)CC(C)(C)c1cc(Cl)ccc1O" ?
### Response 96

---

- Assay procedure: antimalarial activity against Dd2 strain (AID 2302);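 also: 0% = DMSO untreated growth and 100% = chloroquine plus artemisinin killed control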
- Experimental conditions: P. falciparum Dd2 in RBCs, LDH growth readout, 72 h; at 2 µM
Calls of active or inactive are those of the source.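 Rule for the calls: active = growth inhibition above 50% at the single 2 µM test dose, taken to imply half-maximal potency below 2 µM; inactive = the rest.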
Thanks in advance; please answer with one of these: true (active), false (inactive)

Solved cases (3 shown):
O=C(NCC(CCN1CCC(c2c[nH]c3ccccc23)CC1)c1ccccc1)Nc1ccc(Cl)c(Cl)c1 (centres undefined); true
CC(C)C[C@@H](/C=N/N1CC(=O)NC1=O)NC(=O)[C@H](CC(C)C)NC(=O)c1ccc(OCCN2CCOCC2)cc1; true
COc1ccc(CN(C)C(=O)CCNS(=O)(=O)c2ccc3c(c2)OCCCO3)cc1F; true

### Prompt In this assay, the call recorded for "Cn1c(Cc2ccccc2)nnc1Sc1ccc(C#N)c([N+](=O)[O-])c1" was what?
### Response false

### Prompt In this assay, the call recorded for "COc1ccc(CN2CCCN(Cc3ccc(C(=O)Nc4ccc(Cl)cc4)cc3)CC2)cc1" was what?
### Response false

### Prompt In this assay, the call recorded for "Cc1cc(NN=Cc2ccccc2[N+](=O)[O-])c2cc(F)ccc2n1" was what?
### Response true

### Prompt In this assay, the call recorded for "Cc1nc(-c2cccc3c(NC(=O)N4CCc5cc6nccc(N7CCN(C)CC7)c6cc54)cccc23)no1" was what?
### Response true

### Prompt In this assay, the call recorded for O=C1Nc2cccc3c2C1(CCCCN1CCC(c2c(-c4ccc(F)cc4)[nH]c4ccccc24)CC1)CCC3 (centres undefined) was what?
### Response false

### Prompt In this assay, the call recorded for "Cc1cccc2c(CON3C(N)=NC(N)=NC3(C)C)cccc12" was what?
### Response true
